- assay_system: Protein translocase subunit SecA (Escherichia coli (strain K12)) (UniProt P10408)
- Sequence (P10408 whole entry): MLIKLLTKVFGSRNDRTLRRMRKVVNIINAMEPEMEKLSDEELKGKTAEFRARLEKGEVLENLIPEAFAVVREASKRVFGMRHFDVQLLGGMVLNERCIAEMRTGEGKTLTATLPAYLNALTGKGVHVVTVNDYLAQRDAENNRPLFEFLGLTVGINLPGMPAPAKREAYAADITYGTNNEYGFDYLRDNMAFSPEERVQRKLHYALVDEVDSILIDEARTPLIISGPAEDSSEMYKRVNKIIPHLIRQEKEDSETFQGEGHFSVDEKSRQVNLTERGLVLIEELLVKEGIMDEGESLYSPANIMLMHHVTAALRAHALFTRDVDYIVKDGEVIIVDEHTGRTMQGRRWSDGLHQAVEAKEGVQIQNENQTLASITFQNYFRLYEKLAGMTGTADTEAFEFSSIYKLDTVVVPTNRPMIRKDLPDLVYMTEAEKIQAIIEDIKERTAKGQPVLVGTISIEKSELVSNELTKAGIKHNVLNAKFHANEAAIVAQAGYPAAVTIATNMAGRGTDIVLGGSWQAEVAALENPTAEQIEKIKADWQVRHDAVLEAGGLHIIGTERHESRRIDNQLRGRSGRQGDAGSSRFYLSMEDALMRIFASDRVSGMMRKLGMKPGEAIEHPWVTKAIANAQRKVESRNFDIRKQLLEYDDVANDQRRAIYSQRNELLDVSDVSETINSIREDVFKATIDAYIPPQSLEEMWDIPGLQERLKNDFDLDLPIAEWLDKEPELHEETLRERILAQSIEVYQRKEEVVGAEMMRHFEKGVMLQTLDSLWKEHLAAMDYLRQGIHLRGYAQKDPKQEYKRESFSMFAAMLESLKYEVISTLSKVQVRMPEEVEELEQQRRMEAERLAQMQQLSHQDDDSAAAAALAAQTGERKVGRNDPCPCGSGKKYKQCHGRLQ
- test_details: Assay to Identify E. coli SecA ATPase Inhibitors
- Format: functional
- Set-up: scale not given: direction of the effect not stated beside the values
- reported_conditions: 30 µM
Potency and affinity values are given separately.
This listing pairs compounds with measured Percent Effect.
Numbers only here, please. The scale is %.

Below: 3 compounds and their reported Percent Effect.
CCN1CCC(NC(=O)CN2CCc3c(nc(C4CC4)n3C)C2)CC1 = -2.61
CCN(CC1CCOC1)C(=O)Nc1ccc(-n2cncn2)nc1 (stereo not drawn) = -3.32
c1ccc(-n2ccnc2)c(CNCC2CNc3ccnn3C2)c1 (stereo not drawn) = -2.24

Pending compound:
Prompt: Form entry - test system: Protein translocase subunit SecA (Escherichia coli (strain K12)) (UniProt P10408); read-out: Percent Effect; compound: Cc1nccn1C1CCCN(C(=O)c2ccc3c(c2)COC3)C1 (stereo not drawn)
Completion: -0.738

* * *

- assay_system: Arginase-2, mitochondrial (Homo sapiens) (UniProt P78540)
- Sequence (P78540 whole entry): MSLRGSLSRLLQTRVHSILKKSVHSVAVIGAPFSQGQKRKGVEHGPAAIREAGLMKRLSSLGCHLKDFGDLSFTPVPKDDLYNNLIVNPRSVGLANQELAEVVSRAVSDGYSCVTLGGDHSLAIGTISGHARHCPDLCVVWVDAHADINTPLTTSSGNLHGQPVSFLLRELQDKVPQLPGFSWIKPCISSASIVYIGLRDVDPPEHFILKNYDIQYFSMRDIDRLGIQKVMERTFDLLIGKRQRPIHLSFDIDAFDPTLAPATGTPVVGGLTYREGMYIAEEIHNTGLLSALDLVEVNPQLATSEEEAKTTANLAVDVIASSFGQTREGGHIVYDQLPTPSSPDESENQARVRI
- test_details: in vitro enzyme assay to detect the production of urea directly proportional to the activity of Arginase II; note: in the data most compounds retested in dose-response had high values
- Assay type: functional
- Design: scale not given: direction of the effect not stated beside the values
- reported_conditions: 33.3 µM
This listing pairs molecules with measured Percent Effect.
Numbers only here, please. The scale is %.

O=C1CC(c2cccnc2)C2(CCN(C(=O)c3ccncc3)CC2)N1 (stereo unspecified) = -4.78
Cc1cnn(C2CCCN(C(=O)c3cn4cccnc4n3)C2)c1 (stereo unspecified) = -6.01

Prompt: Form entry - test system: Arginase-2, mitochondrial (Homo sapiens) (UniProt P78540); read-out: Percent Effect; molecule: COc1cc(CNCCc2cnn(C)c2)cc2c1OCCO2
Completion: -1.92

Prompt: Try this molecule too: O=C1C(NCc2nnc3n2CCCC3)CCN1c1ccccc1 (stereo unspecified)
Completion: 7.79

Prompt: Try this molecule too: Cc1nc(C)c(CNC(=O)NC(c2nnc3n2CCC3)C(C)C)s1 (stereo unspecified)
Completion: -2.08

Prompt: Try this molecule too: Cc1cnn(CC2CCCN2C(=O)CCc2c(C)noc2Cl)c1 (stereo unspecified)
Completion: 4.73

Prompt: Try this molecule too: Cc1cc2c(=O)n3c(nc2s1)CCN(C(=O)c1scnc1C)CC3
Completion: -5.34

Prompt: Try this molecule too: O=C(c1cscn1)N1CCC2(CCN(Cc3nccs3)C2)CC1
Completion: -6.05

* * *

- assay_system: Arginase-2, mitochondrial (Homo sapiens) (UniProt P78540)
- test_details: in vitro enzyme assay to detect the production of urea directly proportional to the activity of Arginase II; note: in the data most compounds retested in dose-response had high values
- Type: functional
- Parameters: scale not given: direction of the effect not stated beside the values
- reported_conditions: 33.3 µM
endpoint_name: Percent Effect (%)
Numbers only here, please. The scale is %.

Below: 3 compounds and their reported Percent Effect.
CC(O)CNC(=O)NCc1ccc(N2CCNC(=O)C2)cc1 (stereo not given) = -0.712
Cc1cnn(C(C)C2CC2)c1NC(=O)c1cnccn1 (stereo not given) = 0.35
Cc1cccc(CN2C(=O)CO[C@@H]3CN(Cc4nccn4C)C[C@H]32)c1 = 25.8

Prompt: // query Percent Effect value for entry COc1cccc(CNC(CN2CCN(C)CC2)c2ccccc2)c1 (stereo not given)
Completion: 1.74

Prompt: Try this compound too: CCS(=O)(=O)CCn1ccc(NC(=O)CCc2cccc(C)c2)n1
Completion: -2.08

Prompt: Try this compound too: Cc1cccc(-n2c(C)cc(C(=O)N3CCn4c(C)nnc4C3)c2C)c1
Completion: -3.6

* * *

This listing pairs compounds with measured Percent Effect.
- System: Trypanosoma cruzi
- test_details: Trypanosoma cruzi phosphomannomutase and mannose-1-phosphate guanylyltransferase assay
- Type: functional
- Design: scale not given: direction of the effect not stated beside the values
- reported_conditions: 10 µM
Numbers only here, please. The scale is %.

Below: 4 compounds and their reported Percent Effect.
O=S(=O)(CCNC1CCc2ncnn2C1)c1ccccc1 (configuration not stated) = 0.746
CN1[C@H](CN2CCCC2)C[C@@H]2CN(C(=O)c3cccn3C)CC[C@@H]21 = 0.563
CC(=O)Nc1nc(CN2CCCC2Cn2cncn2)cs1 (configuration not stated) = 10.3
Cc1cnc(C(=O)N(CCN(C)C)Cc2ccc(Cl)cc2)cn1 = 4.37

Prompt: // query Percent Effect value for entry Cc1cc(C2CCCN2Cc2cc(=O)n(C)c(=O)n2C)on1 (configuration not stated)
Completion: 3.21

Prompt: Try this compound too: Cc1[nH]ccc1C(=O)N1CCC(c2nnc(Cn3cccn3)n2C)CC1
Completion: 2.98

Prompt: Try this compound too: O=C(c1cccs1)N1CC[C@H](O)[C@@H]1Cc1ccccc1
Completion: -0.563

Prompt: Try this compound too: CCS(=O)(=O)CCn1ccc(NC(=O)CCc2cccc(C)c2)n1
Completion: -3.91

Prompt: Try this compound too: CN(C)S(=O)(=O)N1CCN(C(=O)c2ccc3ccn(C)c3c2)CC1
Completion: 5.72

Prompt: Try this compound too: CN1CC2(CCN(Cc3ccoc3)CC2)COc2ccccc2S1(=O)=O
Completion: -3.23

Prompt: Try this compound too: Cc1ccc(CN2CCC3(CC(C(=O)NCC4CC4)=NO3)C2)cc1C (configuration not stated)
Completion: -4.05

Prompt: Try this compound too: Cc1[nH]ncc1C(=O)N1CCCC(n2cncn2)C1 (configuration not stated)
Completion: -0.308

Prompt: Try this compound too: Cc1ccccc1CNC(=O)CN1CCN(Cc2nccn2C)CC1
Completion: 2.74

* * *

- assay_system: Tyrosyl-tRNA synthetase, putative (Trypanosoma cruzi (strain CL Brener)) (UniProt Q4DSP6)
- Sequence (Q4DSP6 as listed by the source): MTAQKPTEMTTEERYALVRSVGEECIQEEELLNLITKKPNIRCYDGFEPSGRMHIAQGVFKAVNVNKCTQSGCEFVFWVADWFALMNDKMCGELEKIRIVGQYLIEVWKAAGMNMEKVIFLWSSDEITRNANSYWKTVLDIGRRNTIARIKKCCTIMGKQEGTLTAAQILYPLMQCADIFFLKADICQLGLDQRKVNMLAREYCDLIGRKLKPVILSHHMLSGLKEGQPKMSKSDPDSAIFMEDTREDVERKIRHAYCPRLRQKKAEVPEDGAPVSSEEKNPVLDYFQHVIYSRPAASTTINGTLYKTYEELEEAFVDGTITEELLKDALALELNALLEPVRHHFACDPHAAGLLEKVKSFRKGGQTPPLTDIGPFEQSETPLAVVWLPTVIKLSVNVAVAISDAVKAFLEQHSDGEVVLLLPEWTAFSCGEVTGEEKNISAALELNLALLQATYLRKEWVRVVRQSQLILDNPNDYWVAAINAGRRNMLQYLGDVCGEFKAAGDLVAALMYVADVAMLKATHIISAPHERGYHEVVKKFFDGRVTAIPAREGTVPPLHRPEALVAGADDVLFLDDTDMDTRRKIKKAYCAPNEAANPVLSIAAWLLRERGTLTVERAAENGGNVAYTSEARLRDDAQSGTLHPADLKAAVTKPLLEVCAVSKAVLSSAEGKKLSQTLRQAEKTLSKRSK
- test_details: Trypanosoma cruzi tyrosyl tRNA synthetase (TcYRS) SOP
- Assay type: functional
- Parameters: scale not given: direction of the effect not stated beside the values
- reported_conditions: 30 µM
This listing pairs compounds with measured Percent Effect.
Numbers only here, please. The scale is %.

Below: 2 compounds and their reported Percent Effect.
CC(NC(=O)c1cccs1)C(=O)NCc1ccccc1CN1CCCC1 (centres undefined) = 21.9
O=C(c1ccc(Br)o1)N1CCCCC1Cn1cccn1 (centres undefined) = 3.66

Prompt: // query Percent Effect value for entry Cc1nc(N)sc1C(=O)N1CCCC(c2nccn2CCCN(C)C)C1 (centres undefined)
Completion: 9.76

Prompt: Try this compound too: O=C1C(NCc2nnc3n2CCCC3)CCN1CC(F)(F)F (centres undefined)
Completion: 8.43

* * *

This listing pairs compounds with measured Percent Effect.
- assay_system: Ubiquitin-activating enzyme e1, putative (Leishmania donovani (strain BPK282A1))
- Sequence (whole entry): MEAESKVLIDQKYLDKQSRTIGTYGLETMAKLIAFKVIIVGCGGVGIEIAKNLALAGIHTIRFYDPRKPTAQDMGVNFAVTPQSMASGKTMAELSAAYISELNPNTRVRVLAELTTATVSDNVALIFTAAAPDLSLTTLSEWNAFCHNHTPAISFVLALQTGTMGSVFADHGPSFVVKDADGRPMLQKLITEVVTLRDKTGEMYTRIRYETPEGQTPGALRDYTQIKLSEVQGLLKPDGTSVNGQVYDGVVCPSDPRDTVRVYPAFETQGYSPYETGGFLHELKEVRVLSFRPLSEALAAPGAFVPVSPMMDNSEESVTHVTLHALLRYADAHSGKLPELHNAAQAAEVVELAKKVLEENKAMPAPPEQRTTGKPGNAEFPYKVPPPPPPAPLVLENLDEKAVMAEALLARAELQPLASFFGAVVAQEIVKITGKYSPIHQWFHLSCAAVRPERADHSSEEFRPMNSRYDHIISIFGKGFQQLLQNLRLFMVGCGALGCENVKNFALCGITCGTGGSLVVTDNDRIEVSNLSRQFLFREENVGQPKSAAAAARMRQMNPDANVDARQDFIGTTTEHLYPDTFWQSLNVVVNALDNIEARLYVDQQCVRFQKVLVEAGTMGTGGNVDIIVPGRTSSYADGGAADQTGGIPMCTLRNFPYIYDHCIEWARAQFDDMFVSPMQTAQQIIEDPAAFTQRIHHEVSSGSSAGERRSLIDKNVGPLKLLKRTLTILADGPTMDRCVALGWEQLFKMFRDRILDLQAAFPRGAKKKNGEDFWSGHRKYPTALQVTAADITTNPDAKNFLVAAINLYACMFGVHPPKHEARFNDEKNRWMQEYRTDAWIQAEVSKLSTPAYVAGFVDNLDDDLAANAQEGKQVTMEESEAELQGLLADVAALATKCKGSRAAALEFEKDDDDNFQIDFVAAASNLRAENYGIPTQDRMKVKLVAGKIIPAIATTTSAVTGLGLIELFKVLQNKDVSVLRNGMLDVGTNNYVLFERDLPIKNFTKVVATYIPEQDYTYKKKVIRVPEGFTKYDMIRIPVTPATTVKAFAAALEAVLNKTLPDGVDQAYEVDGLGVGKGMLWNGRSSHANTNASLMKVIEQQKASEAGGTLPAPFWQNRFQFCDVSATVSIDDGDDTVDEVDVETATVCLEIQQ
- test_details: Leishmania donovani Ubiquitin Activating Enzyme (LdE1)
- Assay type: functional
- Parameters: scale not given: direction of the effect not stated beside the values
- reported_conditions: 30 µM
Results with a measured potency or affinity are listed apart.
Answers without a unit are incomplete; give the number and then its unit.

Below: 2 compounds and their reported Percent Effect.
CC(C)Cc1cc(C(=O)NCc2nnc[nH]2)[nH]n1 = 7.89%
O=C(NCC1CCOC1)c1ccc(OCC(F)(F)F)nc1 (configuration not stated) = 12.8%

Prompt: // query Percent Effect value for entry c1ccc(OCCCN2CCN(c3ccc4nncn4n3)CC2)cc1
Completion: -18.2%

Prompt: Try this compound too: O=C(CCCNc1ncccn1)N1CCCC(n2cccn2)C1 (configuration not stated)
Completion: -1.27%

Prompt: Try this compound too: Cc1ccccc1CSc1nc(N)cc(N2C[C@H](O)[C@@H](N(C)C)C2)n1
Completion: 5.41%

Prompt: Try this compound too: CC(=O)NC1CCCN(C(=O)NCc2ccc(-c3ccn[nH]3)cc2)C1 (configuration not stated)
Completion: 21.1%
